Assay: Human HepG2 cell viability assay in 384 well format
Format: toxicity, cell-based
Design: dose 125 nL, time 70.5 hour; concentration not given beside the values
Conditions: HepG2 cells, read-out: Inhibition
property label: cytotoxicity at 70.5 h (%)

compound="CN(CC1CCN(CCO)CC1)CC(O)c1ccc(F)c(F)c1 (stereo not given)" property_label="cytotoxicity at 70.5 h" reading=7.09
compound="CC(=O)Nc1nc(C(=O)NC(C)c2ccncc2)cs1 (stereo not given)" property_label="cytotoxicity at 70.5 h" reading=5.86
compound=CCn1ccnc1CN1CCCN(C(=O)c2ccnc(C)n2)CC1 property_label="cytotoxicity at 70.5 h" reading=14.4
compound=Cc1ccc(C)c(NC(=O)N(C)Cc2cnn(C)c2)c1 property_label="cytotoxicity at 70.5 h" reading=-3.32
compound=COc1cccc(CC(=O)N2CCC(c3ccn4nccc4n3)CC2)c1 property_label="cytotoxicity at 70.5 h" reading=-3.73
compound=CNC(=O)CCNC(=O)c1cccc(Cn2nc(C)cc2C)c1 property_label="cytotoxicity at 70.5 h" reading=-3.48
compound="Cc1nn(C)c(C)c1OCC(=O)NCC(O)c1ccco1 (stereo not given)" property_label="cytotoxicity at 70.5 h" reading=16
compound=CNS(=O)(=O)c1cccc(CNc2cc(C(F)(F)F)ccn2)c1 property_label="cytotoxicity at 70.5 h" reading=-0.978
compound="Cn1cc(C2CCCN2Cc2csc(-c3ccsc3)n2)cn1 (stereo not given)" property_label="cytotoxicity at 70.5 h" reading=-0.271
compound="CCC(SC)C(=O)N1CCC(n2cccn2)CC1 (stereo not given)" property_label="cytotoxicity at 70.5 h" reading=-6.08
compound="c1cnc(N2CCOCC3(C2)CN(c2nccs2)CCO3)nc1 (stereo not given)" property_label="cytotoxicity at 70.5 h" reading=-7.1
compound=CCOC(=O)c1cnn(-c2cc(C)ccn2)c1N property_label="cytotoxicity at 70.5 h" reading=8.9
compound="CC(NCCCC#N)c1ccc(-c2ccncc2)cc1 (stereo not given)" property_label="cytotoxicity at 70.5 h" reading=14.3
compound=O=C(O)CSc1nccc(-c2ccc3c(c2)OCO3)n1 property_label="cytotoxicity at 70.5 h" reading=-7.09
compound=CN1C(=O)CC2(CCNCC2)c2ccccc21 property_label="cytotoxicity at 70.5 h" reading=6.26
compound="Cc1ccc(OCC2CCCN(c3nc(CO)cs3)C2)cc1 (stereo not given)" property_label="cytotoxicity at 70.5 h" reading=-0.763
compound=COCCN1C(=O)CC[C@]12CC[C@@H](NC(=O)c1cnccn1)CC2 property_label="cytotoxicity at 70.5 h" reading=-2.82
compound=COCCNC(=O)C1(c2ccc(C)c(OC)c2)CCCC1 property_label="cytotoxicity at 70.5 h" reading=-10.9
compound=CS(=O)(=O)NCCCNC(=O)c1cccnc1O property_label="cytotoxicity at 70.5 h" reading=-4.43
compound=Cc1cc(C)cc(CN2C[C@@H]3OCCN(S(=O)(=O)N(C)C)[C@@H]3C2)c1 property_label="cytotoxicity at 70.5 h" reading=-5.73
compound="O=C(CC1CCCO1)Nc1ccn(Cc2cccc3cccnc23)n1 (stereo not given)" property_label="cytotoxicity at 70.5 h" reading=-6.79
compound="CC(NC(=O)C(C)(C)C#N)c1ccc(OCC2CC2)c(F)c1 (stereo not given)" property_label="cytotoxicity at 70.5 h" reading=-6.52
compound="CN(C)C(=O)NC1COC2(CCN(Cc3ccco3)CC2)C1 (stereo not given)" property_label="cytotoxicity at 70.5 h" reading=-12.8
compound="O=C(CCn1cncn1)N1CCCC(CO)(CCCc2ccccc2)C1 (stereo not given)" property_label="cytotoxicity at 70.5 h" reading=15.8
compound="COCC1N(C(=O)c2ccco2)[C@H]2CC[C@]1(O)CC2 (stereo not given in full)" property_label="cytotoxicity at 70.5 h" reading=-2.24

* * *

Experiment: Human HepG2 cell viability assay in 384 well format
Type: toxicity, cell-based
Set-up: dose 125 nL, time 70.5 hour; concentration not given beside the values
Details: HepG2 cells, read-out: Inhibition
property label: cytotoxicity at 70.5 h (%)

molecule=Cn1cc(C(=O)NCc2cn3c(n2)CN(CC2CCCC2)CC3)cn1 property_label="cytotoxicity at 70.5 h" reading=-112
molecule="Cc1cccc(-c2c[nH]c(C3CCCN3C(=O)Cn3cc(C)cn3)n2)c1 (configuration not stated)" property_label="cytotoxicity at 70.5 h" reading=6.62
molecule=COc1cc(CN(C)C(=O)Nc2cc(C)on2)ccc1SC property_label="cytotoxicity at 70.5 h" reading=-1.35
molecule="CCC(=O)N1CCc2[nH]cnc2C12CCN(CC1CCOC1)CC2 (configuration not stated)" property_label="cytotoxicity at 70.5 h" reading=-9.55
molecule=Cc1cc2c(=O)n3c(nc2s1)CCN(C(=O)c1cnn(C)c1)CC3 property_label="cytotoxicity at 70.5 h" reading=-7.07
molecule=Cc1noc(C)c1CC(=O)NCCN1CCN(S(C)(=O)=O)CC1 property_label="cytotoxicity at 70.5 h" reading=0.0227
molecule="CCOc1ccc(NC(=O)NCC(C)(O)c2cccs2)cc1 (configuration not stated)" property_label="cytotoxicity at 70.5 h" reading=-8.04
molecule=CCc1ccccc1CN1CCn2nc(CNC(C)=O)cc2C1 property_label="cytotoxicity at 70.5 h" reading=59.7
molecule=O=C(Cn1cc(-c2ccccc2)cn1)N1CCNC1=O property_label="cytotoxicity at 70.5 h" reading=-21.6
molecule=CCCS(=O)(=O)NC(=O)c1ccc(Br)o1 property_label="cytotoxicity at 70.5 h" reading=1.65
molecule=O=C(NCCn1ccnc1)c1cncc(Br)c1 property_label="cytotoxicity at 70.5 h" reading=19.8
molecule="CCNC(=O)C1(Cc2ccc(-c3ccccc3)cc2)CCCNC1 (configuration not stated)" property_label="cytotoxicity at 70.5 h" reading=4.78

* * *

Test: Human HepG2 cell viability assay in 384 well format
Assay type: toxicity, cell-based
Parameters: dose 125 nL, time 70.5 hour; concentration not given beside the values
Conditions: HepG2 cells, read-out: Inhibition
property label: cytotoxicity at 70.5 h (%)

compound=Cc1ccc(O)c(CNc2cccc(CN3CCN(C)CC3)c2)n1 property_label="cytotoxicity at 70.5 h" reading=-0.441
compound="CC(C)c1n[nH]c(C2CN(Cc3nnc(C4CC4)n3C)CCO2)n1 (stereo not drawn)" property_label="cytotoxicity at 70.5 h" reading=-7.72
compound=Cc1ccc(N(C)S(=O)(=O)c2cc(C(=O)O)cs2)cc1 property_label="cytotoxicity at 70.5 h" reading=4.32
compound=Cc1cc(CN2CCN(C(=O)NCc3csc(C)n3)CC2)no1 property_label="cytotoxicity at 70.5 h" reading=17.1
compound="CN1CCC(NC(=O)Nc2ccc(F)c(Br)c2)C1=O (stereo not drawn)" property_label="cytotoxicity at 70.5 h" reading=21
compound="c1cnnc(NCC2CN(CC3CCOCC3)CCO2)c1 (stereo not drawn)" property_label="cytotoxicity at 70.5 h" reading=-5.6
compound="Cc1nc(C)n(CC2CN(Cc3cccc(C(N)=O)c3)CCO2)n1 (stereo not drawn)" property_label="cytotoxicity at 70.5 h" reading=-4.7
compound="Cc1ccc(-c2nc(CC(=O)NCC3CCCOC3)cs2)o1 (stereo not drawn)" property_label="cytotoxicity at 70.5 h" reading=-0.602
compound=CC(C)N1CCC(c2nc3ccc(-c4ccnn4C)cn3n2)CC1 property_label="cytotoxicity at 70.5 h" reading=19.8
compound=CCO[C@H]1CN(CC2CC2)[C@@H]2CCCO[C@H]12 property_label="cytotoxicity at 70.5 h" reading=1.44
compound="CC(O)CN1CCN(C(=O)c2cnn(-c3ccc(Cl)cc3)c2)CC1 (stereo not drawn)" property_label="cytotoxicity at 70.5 h" reading=-5.02
compound="CC(CC(=O)NCCS(N)(=O)=O)C1CCCCC1 (stereo not drawn)" property_label="cytotoxicity at 70.5 h" reading=-9.82
compound=Cc1nc(N(C)CCCc2nccn2C)c2nc(C)oc2n1 property_label="cytotoxicity at 70.5 h" reading=-11.8
compound=COCCNC(=O)NCCc1ccn(-c2ccccc2)n1 property_label="cytotoxicity at 70.5 h" reading=-10.9
compound=CN(C)c1ncc(CNS(=O)(=O)c2cccc3ccccc23)n1C property_label="cytotoxicity at 70.5 h" reading=-11.7
compound="CC(CCc1ccccc1)NC(=O)CNCCCN1CCOCC1 (stereo not drawn)" property_label="cytotoxicity at 70.5 h" reading=10.1
compound="CN1CCOC(C(=O)N2CCCC(C)(C)CC2)C1 (stereo not drawn)" property_label="cytotoxicity at 70.5 h" reading=-3.51
compound=CN(Cc1cccnc1)[C@@H]1CN(Cc2nccn2C)[C@@H]2CCCO[C@H]12 property_label="cytotoxicity at 70.5 h" reading=-4.78
compound="CC(=O)N1N=C(c2ccccc2)OC1C(=O)NCCc1cccc(Cl)c1 (stereo not drawn)" property_label="cytotoxicity at 70.5 h" reading=-19.7
compound=CN1CCN(CC2CC2)C(=O)C12CCN(c1nccs1)CC2 property_label="cytotoxicity at 70.5 h" reading=7.83
compound="CCc1cnc(CN(C(C)=O)C2CCN(CCN3CCCCC3)C2)o1 (stereo not drawn)" property_label="cytotoxicity at 70.5 h" reading=-3.61
compound=CC(C)CSCCN1CCCN(S(C)(=O)=O)CC1 property_label="cytotoxicity at 70.5 h" reading=9.07
compound="Cc1nn(C)cc1C1CC(=O)Nc2c1cnn2C(C)C (stereo not drawn)" property_label="cytotoxicity at 70.5 h" reading=-10.7
compound="COCC(NC(=O)c1ccc[nH]1)c1cccc(C(F)(F)F)c1 (stereo not drawn)" property_label="cytotoxicity at 70.5 h" reading=17.9
compound=CN1CCC2(CCN(Cc3nccs3)CC2)C1=O property_label="cytotoxicity at 70.5 h" reading=-1.5
compound=CCc1ncc(CN2CCC(O)(c3ccccc3F)CC2)cn1 property_label="cytotoxicity at 70.5 h" reading=-4.61
compound="Cc1ccc(-c2ccnc(NCC(O)c3ccc(O)cc3)n2)c(C)n1 (stereo not drawn)" property_label="cytotoxicity at 70.5 h" reading=-4.44
compound=CN(C)CCNC(=O)[C@H]1C[C@H]2CN(c3ncccn3)C[C@H]2N1C property_label="cytotoxicity at 70.5 h" reading=-2.47
compound="CCn1cc2c(n1)CN(S(=O)(=O)c1cn(C)cn1)CC2COC (stereo not drawn)" property_label="cytotoxicity at 70.5 h" reading=-3.24
compound=Cc1noc(C)c1CNC(=O)N1CCC(CN2CCC(C)CC2)CC1 property_label="cytotoxicity at 70.5 h" reading=-2.8
compound=Cn1cc(-c2cc(-c3cnn(C)c3)n(CC(=O)NC3CC3)n2)cn1 property_label="cytotoxicity at 70.5 h" reading=-20.4
compound="CC(C)(C)OCC1CN(Cc2cccs2)S(=O)(=O)c2cnccc2O1 (stereo not drawn)" property_label="cytotoxicity at 70.5 h" reading=-2.07
compound=CC(=O)c1c(F)cccc1NC1CCN(S(=O)(=O)C2CC2)CC1 property_label="cytotoxicity at 70.5 h" reading=-6.69
compound=COc1cccc(CC(=O)N2CC[C@@H]3CN(C)S(=O)(=O)[C@@H]3CC2)c1 property_label="cytotoxicity at 70.5 h" reading=-3.48
compound="Cc1cc(C(C)(O)CNC(=O)CCOCC(C)C)c(C)o1 (stereo not drawn)" property_label="cytotoxicity at 70.5 h" reading=0.738
compound=CC(=O)NCCNC(=O)NCCCc1cccc(F)c1 property_label="cytotoxicity at 70.5 h" reading=-5.39
compound="COCC(=O)N1CCC(c2ccc(OC)cc2)C1 (stereo not drawn)" property_label="cytotoxicity at 70.5 h" reading=-16.3
compound="COc1ccc(F)cc1CN1CCCC(c2cc(C(N)=O)[nH]n2)C1 (stereo not drawn)" property_label="cytotoxicity at 70.5 h" reading=-10.6
compound="CCN(Cc1ccc(C)o1)C(=O)C(C)n1ccnc1C(C)C (stereo not drawn)" property_label="cytotoxicity at 70.5 h" reading=-16.9
compound="CCCOc1cccc(CNC(=O)CN2CCN(C)CC2C)c1 (stereo not drawn)" property_label="cytotoxicity at 70.5 h" reading=-13.5
compound=CN1CCC2(CCN(C(=O)c3ccccc3)CC2)C1 property_label="cytotoxicity at 70.5 h" reading=31.4
compound="CCC(C)(NCC(=O)NC(=O)NC)c1nc(C)cs1 (stereo not drawn)" property_label="cytotoxicity at 70.5 h" reading=-4.2
compound=CCN(CC)C(=O)Cn1ccc2cc(NC(C)=O)ccc21 property_label="cytotoxicity at 70.5 h" reading=-3.27
compound=Cn1ncnc1NS(=O)(=O)c1ccccc1 property_label="cytotoxicity at 70.5 h" reading=6.82
compound=O=C(NCc1ccco1)[C@@H]1C[C@H]2OCC[C@H]2N(c2ncc(F)cn2)C1 property_label="cytotoxicity at 70.5 h" reading=-14.6
compound="NCC1Cn2nnc(-c3cccc(F)c3)c2CO1 (stereo not drawn)" property_label="cytotoxicity at 70.5 h" reading=-4.77
compound="O=C1CC(c2cccnc2)c2c(sc3c2CCCC3)N1 (stereo not drawn)" property_label="cytotoxicity at 70.5 h" reading=-3.62
compound=CCN(Cc1c(F)cccc1F)Cn1nc(C)c2c(C)onc2c1=O property_label="cytotoxicity at 70.5 h" reading=2.01
